Conditions: 1 μM
I'd appreciate it if you marked entries Criterion met when CL hepatocytes human is lower than 20 µL/min/mio cells and Criterion not met when it is not.

Compound | Group
COc1ccc(C(=O)c2c(C)n(CCN3CCOCC3)c3cc(I)ccc23)cc1 [AM630] | Criterion met
CCCn1c(C)c(C(=O)c2cccc3ccccc23)c2ccccc21 [JWH015] | Criterion met
CN1CCCC[C@H]1Cn1cc(C(=O)c2cc([N+](=O)[O-])ccc2I)c2ccccc21 [(S)-AM1241] | Criterion not met
Cc1ccc2c(c1)Cc1c(C(=O)NN3CCCCC3)nn(-c3ccc(Cl)cc3Cl)c1-2 [Gp-1a] | Criterion not met
CCCCCCC(C)(C)c1cc(OC)c(C2=C[C@H]3CC[C@]2(CO)C3(C)C)c(OC)c1 [HU910] | Criterion met
CCCC(C)(C)c1ccc2c(c1)OC(C)(C)[C@@H]1CC=C(C)C[C@@H]21 [JWH133] | Criterion met

Quick check: CL hepatocytes human of Cc1c(C(=O)c2cccc3ccccc23)c2cccc3c2n1[C@H](CN1CCOCC1)CO3 [WIN55212-2] under 20 µL/min/mio cells?
Criterion not met

###

Known pERK-GIRK bias factor (BF) of a selection of compounds
Molecular target: UniProt:P34972
Set-up: expressed in transfected cells; host or cells: Flp-In-293 (Invitrogen #R750-07), pcDNA5/FRT
Settings: hCB2R
In your answer, state the number alone without any accompanying words.

Compound | Experimental target | pERK-GIRK bias factor (BF)
CN1CCCC[C@H]1Cn1cc(C(=O)c2cc([N+](=O)[O-])ccc2I)c2ccccc21 [(S)-AM1241] | UniProt:P34972 | 4.72

# lookup: pERK-GIRK bias factor (BF) of CCCCCCC(C)(C)c1cc(OC)c([C@@H]2C=C(CO)[C@@H]3C[C@H]2C3(C)C)c(OC)c1
1.25

I would be grateful if you could share the reported pERK-GIRK bias factor (BF) for CCCCC/C=C\C/C=C\C/C=C\C/C=C\CCCC(=O)OC(CO)CO .
0.06

###

The entries below are paired with their reported pEC50 ± SEM β-AR recruitment hCB2R.
Target: UniProt P34972
Test: cell-based
Type: cell-based
Keep the answer to the number alone.

Below, each entry is followed by its recorded pEC50 ± SEM β-AR recruitment hCB2R result.
Compound | Result value
COc1ccc(C(=O)c2c(C)n(CCN3CCOCC3)c3cc(I)ccc23)cc1 | 6.15
CN1CCCC[C@@H]1Cn1cc(C(=O)c2cc([N+](=O)[O-])ccc2I)c2ccccc21 [(R)-AM1241] | 7.52
CN1CCCC[C@H]1Cn1cc(C(=O)c2cc([N+](=O)[O-])ccc2I)c2ccccc21 [(S)-AM1241] | 6.54

Turning now to a further record.
I'd like to know its pEC50 ± SEM β-AR recruitment hCB2R. The compound in question is CCCC(C)(C)c1ccc2c(c1)OC(C)(C)[C@@H]1CC=C(C)C[C@@H]21
7.81

###

Target: mCB1R (Mus musculus, UniProt P47746)
Construct: from tissue; host or cells: brain of male C57BL/6J mice
Sequence (P47746 whole entry): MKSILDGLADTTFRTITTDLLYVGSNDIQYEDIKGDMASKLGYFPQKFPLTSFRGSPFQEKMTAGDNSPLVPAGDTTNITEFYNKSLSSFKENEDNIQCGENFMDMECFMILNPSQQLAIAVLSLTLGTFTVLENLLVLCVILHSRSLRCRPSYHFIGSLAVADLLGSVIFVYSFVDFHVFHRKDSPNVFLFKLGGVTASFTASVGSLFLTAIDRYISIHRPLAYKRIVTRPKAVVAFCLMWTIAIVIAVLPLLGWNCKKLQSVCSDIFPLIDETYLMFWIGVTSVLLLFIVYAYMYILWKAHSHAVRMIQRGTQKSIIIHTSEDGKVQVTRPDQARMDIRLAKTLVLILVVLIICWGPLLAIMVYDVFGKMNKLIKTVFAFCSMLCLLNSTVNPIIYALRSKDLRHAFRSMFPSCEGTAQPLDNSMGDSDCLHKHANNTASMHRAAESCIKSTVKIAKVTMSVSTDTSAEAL
Assay: biochemical
Measurement kind: Emax cAMP mCB1R
Number only, please.

Some compounds with recorded Emax cAMP mCB1R:
Compound | Result value
CN1CCCCC1Cn1cc(C(=O)c2cc([N+](=O)[O-])ccc2I)c2ccccc21 (racemic) [(rac)-AM1241] | 21
CN1CCCC[C@H]1Cn1cc(C(=O)c2cc([N+](=O)[O-])ccc2I)c2ccccc21 [(S)-AM1241] | 16
CN1CCCC[C@@H]1Cn1cc(C(=O)c2cc([N+](=O)[O-])ccc2I)c2ccccc21 [(R)-AM1241] | 32
CCCC(C)(C)c1ccc2c(c1)OC(C)(C)[C@@H]1CC=C(C)C[C@@H]21 [JWH133] | 11

Please find the next compound below.
Any idea what its Emax cAMP mCB1R is? The compound is COc1ccc(C(=O)c2c(C)n(CCN3CCOCC3)c3cc(I)ccc23)cc1 [AM630]
13

###

Target: UniProt P47936
Test: PathHunter β-arrestin recruitment assay
Assay type: cell-based
// values below are reported EC50
Express the result in nM but write the number alone.

Query smiles | EC50 / nM
CCCCCCC(C)(C)c1ccc([C@@H]2C[C@H](O)CC[C@H]2CCCO)c(O)c1 | 9.55

Consider the molecule CCCCCCC(C)(C)c1cc(OC)c([C@@H]2C=C(CO)[C@@H]3C[C@H]2C3(C)C)c(OC)c1 and give its measured EC50.
339

###

Target: Rat recombinant TRPV2 (Rattus norvegicus)
Sequence (Q9WUD2 1-761): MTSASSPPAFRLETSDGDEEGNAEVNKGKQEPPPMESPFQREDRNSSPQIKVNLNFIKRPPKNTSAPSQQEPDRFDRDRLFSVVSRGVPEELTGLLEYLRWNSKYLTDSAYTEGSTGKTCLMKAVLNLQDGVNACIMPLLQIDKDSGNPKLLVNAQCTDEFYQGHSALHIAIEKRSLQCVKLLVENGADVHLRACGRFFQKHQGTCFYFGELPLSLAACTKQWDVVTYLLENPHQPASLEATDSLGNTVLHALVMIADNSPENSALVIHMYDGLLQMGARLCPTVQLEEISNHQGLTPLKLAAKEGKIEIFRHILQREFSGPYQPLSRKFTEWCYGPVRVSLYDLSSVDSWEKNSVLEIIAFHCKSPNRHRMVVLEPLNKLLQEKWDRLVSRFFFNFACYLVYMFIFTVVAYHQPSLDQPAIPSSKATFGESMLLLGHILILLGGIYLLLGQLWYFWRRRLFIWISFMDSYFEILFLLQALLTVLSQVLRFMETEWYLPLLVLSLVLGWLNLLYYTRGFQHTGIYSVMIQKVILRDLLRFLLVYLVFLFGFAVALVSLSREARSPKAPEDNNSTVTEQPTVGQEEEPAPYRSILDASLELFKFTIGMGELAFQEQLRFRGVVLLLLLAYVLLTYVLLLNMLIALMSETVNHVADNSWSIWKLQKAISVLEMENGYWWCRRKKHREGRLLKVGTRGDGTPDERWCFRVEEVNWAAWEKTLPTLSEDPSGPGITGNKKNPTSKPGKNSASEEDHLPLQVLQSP
Test: cell-based
Details: vs LPC 3μM; read-out: TRPV2 IC50 for antagonism or desensitization
Measurement kind: IC50

Recorded IC50, per entry:
Compound | Experimental target | IC50
CN1CCCC[C@@H]1Cn1cc(C(=O)c2cc([N+](=O)[O-])ccc2I)c2ccccc21 [(R)-AM1241] | Rat recombinant TRPV2 (Rattus norvegicus) | 35.5 µM
CCCCCCC(C)(C)c1cc(OC)c([C@@H]2C=C(CO)[C@@H]3C[C@H]2C3(C)C)c(OC)c1 | Rat recombinant TRPV2 (Rattus norvegicus) | > 100 µM

For the compound shown here, Cc1c(C(=O)c2cccc3ccccc23)c2cccc3c2n1[C@H](CN1CCOCC1)CO3 , give the reported IC50.
62 µM

IC50 for Cc1c(C(=O)NN2CCCCC2)nn(-c2ccc(Cl)cc2Cl)c1-c1ccc(Cl)cc1 [SR141716A] ?
> 100 µM

###

Molecular target: hCB2R (Homo sapiens)
Sequence (P34972 whole entry): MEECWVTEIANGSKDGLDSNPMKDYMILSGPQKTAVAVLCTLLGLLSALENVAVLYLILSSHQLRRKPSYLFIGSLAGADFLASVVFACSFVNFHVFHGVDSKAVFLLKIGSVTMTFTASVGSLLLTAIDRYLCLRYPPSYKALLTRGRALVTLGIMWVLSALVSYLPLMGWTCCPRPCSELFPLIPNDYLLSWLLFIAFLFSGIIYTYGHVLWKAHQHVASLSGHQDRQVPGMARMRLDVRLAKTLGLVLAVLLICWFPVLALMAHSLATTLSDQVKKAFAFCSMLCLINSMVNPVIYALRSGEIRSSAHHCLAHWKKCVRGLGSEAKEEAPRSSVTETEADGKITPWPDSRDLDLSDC
Set-up: expressed in transfected cells; host or cells: Flp-In-293 (Invitrogen #R750-07), pcDNA5/FRT
Conditions: hCB2R
Measurement kind: LogR β-AR

Compound | Measurement kind | Result value
CCCCC/C=C\C/C=C\C/C=C\C/C=C\CCCC(=O)NCCO [Anandamide, N-arachidonoylethanolamine] | LogR β-AR | 5.54

// map CCCCCCC(C)(C)c1cc(OC)c(C2=C[C@H]3CC[C@]2(CO)C3(C)C)c(OC)c1 [HU910] to recorded LogR β-AR (system: hCB2R (Homo sapiens))
7.72

Query LogR β-AR on hCB2R (Homo sapiens) for CN1CCCCC1Cn1cc(C(=O)c2cc([N+](=O)[O-])ccc2I)c2ccccc21 (racemic) [(rac)-AM1241]
7.95

GET /values?readout=LogR β-AR&system=hCB2R (Homo sapiens)&item= CN1CCCC[C@H]1Cn1cc(C(=O)c2cc([N+](=O)[O-])ccc2I)c2ccccc21 [(S)-AM1241]
5.97

###

Test: in vitro
Conditions: C57BL6, mouse, hepatocytes
Measurement kind: hepatocyte CLint (µL/min/1e6 cells)
The figure you give is taken to be in µL/min/1e6 cells; do not add the unit.

Molecule | hepatocyte CLint [µL/min/1e6 cells]
Cc1c(C(=O)NN2CCCCC2)nn(-c2ccc(Cl)cc2Cl)c1-c1ccc(Cl)cc1 [SR141716A] | 65

Then there is this molecule:
Looking for the measured hepatocyte CLint of CCCCCCC(C)(C)c1cc(OC)c([C@@H]2C=C(CO)[C@@H]3C[C@H]2C3(C)C)c(OC)c1 , can you help?
4.7

###

Below, each entry is listed alongside its reported LogR β-AR.
Target: mCB2R (Mus musculus)
Sequence (P47936 whole entry): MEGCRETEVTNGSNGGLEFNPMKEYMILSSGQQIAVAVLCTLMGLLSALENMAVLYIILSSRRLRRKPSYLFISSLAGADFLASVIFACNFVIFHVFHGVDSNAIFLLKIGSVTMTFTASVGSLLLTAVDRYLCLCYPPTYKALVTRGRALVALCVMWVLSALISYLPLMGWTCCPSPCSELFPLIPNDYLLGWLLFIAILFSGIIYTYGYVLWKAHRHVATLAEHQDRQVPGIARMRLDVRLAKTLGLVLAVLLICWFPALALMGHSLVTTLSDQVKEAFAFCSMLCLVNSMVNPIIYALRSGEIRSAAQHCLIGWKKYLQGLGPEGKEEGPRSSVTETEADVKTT
Test: Operational analysis of biased signalling
Please reply with the value in numeric form only.

Guide cases for LogR β-AR, answers given:
Query smiles | LogR β-AR
CCCCCCC(C)(C)c1cc(OC)c([C@@H]2C=C(CO)[C@@H]3C[C@H]2C3(C)C)c(OC)c1 | 6.22
CCCCCCC(C)(C)c1cc(OC)c(C2=C[C@H]3CC[C@]2(CO)C3(C)C)c(OC)c1 | 6.57
CCCC(C)(C)c1ccc2c(c1)OC(C)(C)[C@@H]1CC=C(C)C[C@@H]21 | 6.57

Observed LogR β-AR on mCB2R (Mus musculus) for CCCCCCC(C)(C)c1ccc([C@@H]2C[C@H](O)CC[C@H]2CCCO)c(O)c1 , please.
8.0
